SYSTEM_NAME: human JNK1 (Homo sapiens, UniProt P45983)
Construct: His6 (Met-Ala-His6, read from primer JNK1-U) (N); cJUN substrate from E. coli JM109
Sequence (P45983 1-384 isoform P45983-2): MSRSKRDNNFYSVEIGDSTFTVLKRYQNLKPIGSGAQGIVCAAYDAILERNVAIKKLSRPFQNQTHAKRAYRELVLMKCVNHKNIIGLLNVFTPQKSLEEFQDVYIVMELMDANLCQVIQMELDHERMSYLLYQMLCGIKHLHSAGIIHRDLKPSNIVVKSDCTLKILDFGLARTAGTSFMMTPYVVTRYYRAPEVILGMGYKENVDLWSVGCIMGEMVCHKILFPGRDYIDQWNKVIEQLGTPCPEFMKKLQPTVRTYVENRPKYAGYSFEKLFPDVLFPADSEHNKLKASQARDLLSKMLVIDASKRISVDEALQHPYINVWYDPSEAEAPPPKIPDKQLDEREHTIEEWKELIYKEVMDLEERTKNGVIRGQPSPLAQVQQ
EXPERIMENT_SUMMARY: Measurement of JNK inhibitory activity (32P uptake into cJUN by active JNK1)
ASSAY_SETUP: 2.5 μM ATP, 30° C., 60 min
pIC50: −log10 of the molar value.
MEASUREMENT_TYPE: pIC50

Record excerpt, results attached:
STRUCTURE_SMILES_STRING	MEASUREMENT_TYPE	ENDPOINT_RESULT
CCC(=O)c1c(-c2ccccc2)c2cc(Br)ccc2c(=O)n1Cc1ccc(S(C)(=O)=O)cc1	pIC50	7.34
C/C(N)=C/C(=O)c1c(-c2ccccc2)c2cc(Br)ccc2c(=O)n1Cc1ccc(S(C)(=O)=O)cc1	pIC50	7.49
CCC(=O)c1c(-c2ccccc2)c2cc(Br)ccc2c(=O)n1Cc1ccc(C(=O)O)cc1	pIC50	8.04
CCC(=O)c1c(-c2ccccc2)c2cc(Cl)ccc2c(=O)n1Cc1ccc(C(=O)O)cc1	pIC50	7.80
CCCC(=O)c1c(-c2ccccc2)c2cc(Cl)ccc2c(=O)n1Cc1ccc(S(N)(=O)=O)cc1	pIC50	7.47

[A] CC(=O)c1c(-c2ccccc2)c2cc(Br)ccc2c(=O)n1Cc1ccc(S(N)(=O)=O)cc1
[B] COC(=O)c1c(-c2ccccc2)c2cc(Br)ccc2c(=O)n1Cc1ccc(C(=O)O)cc1
Select the item with the higher value of pIC50 from the options A and B listed. Write down the label of the entry you select.
B
(B: 7.70, A: 7.41)

[I] COC(=O)c1c(-c2ccccc2)c2cc(N)ccc2c(=O)n1Cc1ccc2c(c1)OCO2
[II] CCC(=O)c1c(-c2ccccc2)c2cc(Br)ccc2c(=O)n1Cc1ccc(-c2nnn[nH]2)cc1
Select one: I or II . Criterion: greater recorded pIC50. Reply with the label of the item you choose.
II

* * *

SYSTEM_NAME: p38α (Homo sapiens, UniProt Q16539)
Sequence (Q16539 whole entry): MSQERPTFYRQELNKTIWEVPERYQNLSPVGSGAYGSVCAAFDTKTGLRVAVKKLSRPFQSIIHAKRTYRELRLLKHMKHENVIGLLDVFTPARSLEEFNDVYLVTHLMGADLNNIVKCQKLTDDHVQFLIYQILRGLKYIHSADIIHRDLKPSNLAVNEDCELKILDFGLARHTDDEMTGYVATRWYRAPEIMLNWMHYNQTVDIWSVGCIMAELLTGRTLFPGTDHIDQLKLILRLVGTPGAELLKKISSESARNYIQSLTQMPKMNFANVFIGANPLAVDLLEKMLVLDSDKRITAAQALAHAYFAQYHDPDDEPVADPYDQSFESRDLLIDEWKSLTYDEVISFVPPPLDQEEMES
EXPERIMENT_SUMMARY: Inhibitory action on p38α
Format: biochemical
MEASUREMENT_TYPE: inhibition at 10 µM (%)

[1] COC(=O)c1c(-c2ccccc2)c2cc(Br)ccc2c(=O)n1Cc1ccc(NC(=O)CCC(=O)O)cc1 [Example 122]
[2] COC(=O)c1c(-c2ccccc2)c2cc(Br)ccc2c(=O)n1Cc1ccc(S(C)(=O)=O)cc1 [Example 94]
# argmax over inhibition at 10 µM for candidates 1 and 2 Please reply using the label of the selected record.
2
(2: 2%, 1: 0%)

[1] CCN(CC)NC(=O)c1ccc(Cn2c(C(=O)OC)c(-c3ccccc3)c3cc(Br)ccc3c2=O)cc1 [Example 356]
[2] COC(=O)c1c(-c2ccccc2)c2cc(Br)ccc2c(=O)n1Cc1ccc2c(c1)OCO2 [Example 24]
Returns: the argument ( 1 or 2 ) having the larger inhibition at 10 µM. Answer by quoting the chosen item's label.
2

These data points were gathered from patent US7402595B2.
